# PROTOCOL: Ferric-reducing antioxidant power (FRAP) assay
# CONDITIONS: compound at 75 μg/mL
Listing: FRAP reduction value corresponding to concentration of ascorbic acid of selected compounds
Dear colleague, please return just the value in µg/mL, with no unit written.

O=C(C=C1SC(=O)NC1=O)Oc1ccccc1C=NNC(=S)Nc1ccccc1Cl | 4.32
O=C(C=C1SC(=O)NC1=O)Oc1ccc(C=NNC(=S)Nc2ccc(Cl)cc2Cl)cc1 | 2.43
O=C(C=C1SC(=O)NC1=O)Oc1ccccc1C=NNC(=S)Nc1cccc(Cl)c1 | 0.27

Inquiry: Data request, read-out FRAP reduction value corresponding to concentration of ascorbic acid, for O=C(C=C1SC(=O)NC1=O)Oc1cccc(C=NNC(=S)Nc2ccccc2Cl)c1
Reply text: 5.95

###

# Test system: CCD 841 CoTr cells
# PROTOCOL: MTT assay, normal colon epithelial cells
# Assay type: cell-based
# CONDITIONS: Homo sapiens, CCD 841 CoTr (noncancerous), 24 h treatment, mean ± SD
# Description: The effects of TZD–TSCs 2–5 on the cellular viability of a panel of cell lines were investigated through an 3-(4,5-dimethylthiazol-2-yl)-2,5-diphenyl-2H-tetrazolium bromide (MTT) assay, following a 24 h treatment with the compounds. The panel consisted of three solid tumor cells: T98G (glioblastoma multiforme), HepG2 (hepatocellular carcinoma, epithelial), and HT29 (colon adenocarcinoma, epithelial), as well as noncancerous cells CCD 841 CoTr (normal colon, epithelial). […]
Listing: IC50 of selected compounds
Dear colleague, please return just the value in µM, with no unit written.

Below, 3 compounds whose answers are already recorded.
O=C(C=C1SC(=O)NC1=O)Oc1ccccc1C=NNC(=S)Nc1ccccc1Cl | 44.6
O=C(C=C1SC(=O)NC1=O)Oc1cccc(C=NNC(=S)Nc2ccccc2Cl)c1 | 87.3
O=C(C=C1SC(=O)NC1=O)Oc1ccc(C=NNC(=S)Nc2ccc(Cl)cc2Cl)cc1 | 74.2

Inquiry: Data request, read-out IC50, for O=C(C=C1SC(=O)NC1=O)Oc1ccccc1C=NNC(=S)Nc1cccc(Cl)c1
Reply text: 100

###

# Test system: CCD 841 CoTr cells
# PROTOCOL: Nitric oxide measurement (Griess), CCD 841 CoTr
# Format: cell-based, human
# CONDITIONS: 200 μg/mL
# Description: Nitrate, i.e., a stable end product of NO, was measured in culture supernatants with a spectrophotometric method based on the Griess reaction. Culture supernatants were collected from the cell cultures treated with specific concentrations of the tested compounds (25, 75, 150, and 200 μg/mL, respectively). […] The optical density was measured at 550 nm using a microplate reader. […]
Listing: NO production, [NO2^−] of selected compounds
Remember to quote the unit after the number.

Below, 3 compounds whose answers are already recorded.
O=C(C=C1SC(=O)NC1=O)Oc1ccc(C=NNC(=S)Nc2ccc(Cl)cc2Cl)cc1 | 0.272 µM
O=C(C=C1SC(=O)NC1=O)Oc1ccccc1C=NNC(=S)Nc1ccccc1Cl | 0.566 µM
O=C(C=C1SC(=O)NC1=O)Oc1cccc(C=NNC(=S)Nc2ccccc2Cl)c1 | 0.639 µM

Let us examine a further case.
Inquiry: Data request, read-out NO production, [NO2^−], for O=C(C=C1SC(=O)NC1=O)Oc1ccccc1C=NNC(=S)Nc1cccc(Cl)c1
Reply text: 0.492 µM

The measured values listed here are drawn from paper PMC10743653.
